Target: GST-Bc1-2 (Homo sapiens)
Assay: Time Resolved-Fluorescence Resonance Energy Transfer (TR-FRET) Bcl-2 binding assay with F-Bak peptide probe
Settings: GST-Bcl-2 1 nM, F-Bak probe 100 nM, Tb-anti-GST 1 nM; '<' = below limit of detection; read-out: TR-FRET Bcl-2 Binding Ki
Assay Metric: Ki (nM)
Numbers only, in nM.

1) O=C(NS(=O)(=O)c1ccc(NCC2CCOCC2)c([N+](=O)[O-])c1)c1ccc(N2CCC(F)(Cc3ccccc3-c3ccc(Cl)cc3)CC2)cc1Oc1cnc2[nH]ccc2c1 ... 0.039

Now look at this entry.
Tell us which Ki value is on record for CC1(C)CCC(CN2CCN(c3ccc(C(=O)NS(=O)(=O)c4ccc(NN5CCN(C6COC6)CC5)c([N+](=O)[O-])c4)c(Oc4cnc5[nH]ccc5c4)c3)CC2)=C(c2ccc(Cl)cc2)C1
0.033

----------
Biological target: GST-Bc1-2 (Homo sapiens)
Assay: Time Resolved-Fluorescence Resonance Energy Transfer (TR-FRET) Bcl-2 binding assay with F-Bak peptide probe
Details: read-out: Bcl-2 FRET ki
Assay Metric: Ki (nM)
Give bare numbers, in nM.

Some compounds with recorded Ki:
1. CN1CCC(Nc2ccc(S(=O)(=O)NC(=O)c3ccc(N4CCN(CC5=C(c6ccc(Cl)cc6)CC(C)(C)CC5)CC4)cc3Oc3ccc4[nH]ccc4c3)cc2[N+](=O)[O-])CC1 ... 0.013
2. COCCNc1ccc(S(=O)(=O)NC(=O)c2ccc(N3CCN(CC4=C(c5ccc(Cl)cc5)CC(C)(C)CC4)CC3)cc2Oc2ccc3[nH]ccc3c2)cc1S(=O)(=O)C(F)(F)F ... 35

Now look at this entry.
Tell us which Ki value is on record for CN1CCN(Nc2ccc(S(=O)(=O)NC(=O)c3ccc(N4CCN(CC5=C(c6ccc(Cl)cc6)CC(C)(C)CC5)CC4)cc3Oc3ccc4[nH]ccc4c3)cc2[N+](=O)[O-])CC1
0.487

----------
Molecular target: GST-Bc1-2 (Homo sapiens)
Assay: Time Resolved-Fluorescence Resonance Energy Transfer (TR-FRET) Bcl-2 binding assay with F-Bak peptide probe
Conditions: GST-Bcl-2 1 nM, F-Bak probe 100 nM, Tb-anti-GST 1 nM; '<' = below limit of detection; read-out: TR-FRET Bcl-2 Binding Ki
pKi: −log10 of the molar value.
So I've got a bunch of molecules here, and I need their pKi values.

Some molecules with recorded pKi:
1) CC1(C)CCC(CN2CCN(c3ccc(C(=O)NS(=O)(=O)c4ccc(NCC5CCC6(CC5)COC6)c([N+](=O)[O-])c4)c(Oc4cnc5[nH]ccc5c4)c3)CC2)=C(c2ccc(Cl)cc2)C1 ... > 11.00
2) COCC1(C)CCC(CN2CCN(c3ccc(C(=O)NS(=O)(=O)c4ccc(NCC5CCOCC5)c([N+](=O)[O-])c4)c(Oc4cnc5[nH]ccc5c4)c3)CC2)=C(c2ccc(Cl)cc2)C1 (stereo not shown) ... > 11.00

Batch of 2 molecules: report pKi for each.
1. CC1(C)CCC(CN2CCN(c3ccc(C(=O)NS(=O)(=O)c4ccc(N[C@H]5CC[C@H](NC6CCOCC6)CC5)c([N+](=O)[O-])c4)c(Oc4cnc5[nH]ccc5c4)c3)CC2)=C(c2ccc(Cl)cc2)C1
2. CC1(C)CCC(CC2CCN(c3ccc(C(=O)NS(=O)(=O)c4ccc(OCC5CCOCC5)c(Cl)c4)c(Oc4cnc5[nH]ccc5c4)c3)CC2)=C(c2ccc(Cl)cc2)C1

> 11.00
9.22

Batch of 8 molecules: report pKi for each.
1. CC1(C)CCC(CN2CCN(c3ccc(C(=O)NS(=O)(=O)c4ccc(NC5CCN(C(C)(C)C)CC5)c(S(=O)(=O)C(F)(F)F)c4)c(Oc4cnc5[nH]ccc5c4)c3)CC2)=C(c2ccc(Cl)cc2)C1
2. CC1(C)CCC(CN2CCN(c3ccc(C(=O)NS(=O)(=O)c4ccc(NC[C@H]5CN(C6CC6)CCO5)c([N+](=O)[O-])c4)c(Oc4cnc5[nH]ccc5c4)c3)CC2)=C(c2ccc(Cl)cc2)C1
3. CC(=O)N1CCOC(CNc2ccc(S(=O)(=O)NC(=O)c3ccc(N4CCN(CC5=C(c6ccc(Cl)cc6)CC(C)(C)CC5)CC4)cc3Oc3cnc4[nH]ccc4c3)cc2[N+](=O)[O-])C1 (stereo not shown)
4. CC1(C)CCC(CN2CCN(c3ccc(C(=O)NS(=O)(=O)c4ccc(NC[C@@H]5CN(C6CC6)CCO5)c([N+](=O)[O-])c4)c(Oc4cnc5[nH]ccc5c4)c3)CC2)=C(c2ccc(Cl)cc2)C1
5. CC1(C)CCC(CN2CCN(c3ccc(C(=O)NS(=O)(=O)c4ccc(NC5CCC(N(CCC#N)C6CC6)CC5)c([N+](=O)[O-])c4)c(Oc4cnc5[nH]ccc5c4)c3)CC2)=C(c2ccc(Cl)cc2)C1 (stereo not shown)
6. CC1(C)CCC(CN2CCN(c3ccc(C(=O)NS(=O)(=O)c4ccc(NCC5CNCCO5)c([N+](=O)[O-])c4)c(Oc4cnc5[nH]ccc5c4)c3)CC2)=C(c2ccc(Cl)cc2)C1 (stereo not shown)
7. CC1(C)CCC(CN2CCN(c3ccc(C(=O)NS(=O)(=O)c4cc(F)c(NCC5CCOCC5)c(Cl)c4)c(Oc4cnc5[nH]ccc5c4)c3)CC2)=C(c2ccc(Cl)cc2)C1
8. CC1(C)CCC(c2ccc(Cl)cc2)=C(CN2CCN(c3ccc(C(=O)NS(=O)(=O)c4ccc(NCC5CCOCC5)c([N+](=O)[O-])c4)c(Oc4cnc5[nH]ccc5c4)c3)CC2)C1

["> 11.00", "> 11.00", "> 11.00", "> 11.00", "> 11.00", "> 11.00", 9.30, "> 11.00"]

----------
So I've got a bunch of molecules here, and I need their Ki values.
Target: GST-Bc1-2 (Homo sapiens, UniProt P10415)
Sequence (P10415 whole entry): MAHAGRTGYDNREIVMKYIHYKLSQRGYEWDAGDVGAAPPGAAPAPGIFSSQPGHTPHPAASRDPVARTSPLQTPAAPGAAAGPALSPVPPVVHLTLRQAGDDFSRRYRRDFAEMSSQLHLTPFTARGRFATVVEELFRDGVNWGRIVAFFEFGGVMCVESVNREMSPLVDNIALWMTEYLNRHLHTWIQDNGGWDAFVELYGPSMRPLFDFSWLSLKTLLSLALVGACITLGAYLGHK
Assay: Time Resolved-Fluorescence Resonance Energy Transfer (TR-FRET) Bcl-2 binding assay with F-Bak peptide probe
Details: GST-Bcl-2 1 nM, F-Bak probe 100 nM, Tb-anti-GST 1 nM; '<' = below limit of detection; read-out: TR-FRET Bcl-2 Binding Ki
Answers are plain numbers, in nM.

1) CN(C)CC(=O)N1CCC(COc2ncc(S(=O)(=O)NC(=O)c3ccc(N4CCN(CC5=C(c6ccc(Cl)cc6)CC(C)(C)CC5)CC4)cc3Oc3cnc4[nH]ccc4c3)cc2Cl)CC1 [Example 260] ... 0.016

Now look at this entry.
Tell us which Ki value is on record for CC1(C)CCC(CN2CCN(c3ccc(C(=O)NS(=O)(=O)c4cnc5c(ccn5CC5CCOCC5)c4)c(Oc4cnc5[nH]ccc5c4)c3)CC2)=C(c2ccc(Cl)cc2)C1 [Example 388]
0.812

----------
Molecular target: GST-Bc1-2 (Homo sapiens)
Assay: Time Resolved-Fluorescence Resonance Energy Transfer (TR-FRET) Bcl-2 binding assay with F-Bak peptide probe
Settings: GST-Bcl-2 1 nM, F-Bak probe 100 nM, Tb-anti-GST 1 nM; '<' = below limit of detection; read-out: TR-FRET Bcl-2 Binding Ki
Assay Metric: Ki

Some molecules with recorded Ki:
1. CC1(C)CCC(CN2CCN(c3ccc(C(=O)NS(=O)(=O)c4ccc(NCC5CCOC5)c([N+](=O)[O-])c4)c(Oc4cnc5[nH]ccc5c4)c3)CC2)=C(c2ccc(Cl)cc2)C1 (centres unmarked) ... < 0.01 nM
2. CC1(C)CCC(CN2CCN(c3ccc(C(=O)NS(=O)(=O)c4ccc(NC[C@@H]5CCCOC5)c([N+](=O)[O-])c4)c(Oc4cnc5[nH]ccc5c4)c3)CC2)=C(c2ccc(Cl)cc2)C1 ... 0.016 nM
3. CC1(C)CCC(CN2CCN(c3ccc(C(=O)NS(=O)(=O)c4ccc(NCc5ccc(OCCN6CCOCC6)cc5)c([N+](=O)[O-])c4)c(Oc4cnc5[nH]ccc5c4)c3)CC2)=C(c2ccc(Cl)cc2)C1 ... < 0.01 nM

Batch of 2 molecules: report Ki for each.
1. CC1(C)CCC(CN2CCN(c3ccc(C(=O)NS(=O)(=O)c4ccc(N[C@H]5CC[C@H](N(CC6CC6)CC6CC6)CC5)c([N+](=O)[O-])c4)c(Oc4cnc5[nH]ccc5c4)c3)CC2)=C(c2ccc(Cl)cc2)C1
2. CC1(C)CCC(CN2CCN(c3ccc(C(=O)NS(=O)(=O)c4ccc(NC5CCN([C@H]6CCOC[C@H]6F)CC5)c([N+](=O)[O-])c4)c(Oc4cnc5[nH]ccc5c4)c3)CC2)=C(c2ccc(Cl)cc2)C1 (relative stereo)

["< 0.01 nM", "< 0.01 nM"]

----------
So I've got a bunch of molecules here, and I need their pKi values.
Biological target: GST-Bc1-2 (Homo sapiens)
Experiment: Time Resolved-Fluorescence Resonance Energy Transfer (TR-FRET) Bcl-2 binding assay with F-Bak peptide probe
Settings: GST-Bcl-2 1 nM, F-Bak probe 100 nM, Tb-anti-GST 1 nM; '<' = below limit of detection; read-out: TR-FRET Bcl-2 Binding Ki
Give bare numbers, as −log10 of the molar value.

1) CCOC(=O)N1CCN(c2ccc(S(=O)(=O)NC(=O)c3ccc(N4CCN(CC5=C(c6ccc(Cl)cc6)CC(C)(C)CC5)CC4)cc3Oc3cnc4[nH]ccc4c3)cc2[N+](=O)[O-])CC1 ... 9.03
2) CC1(C)CCC(CN2CCN(c3ccc(C(=O)NS(=O)(=O)c4cnc(OCC5(F)CCOCC5)c(Cl)c4)c(Oc4cnc5[nH]ccc5c4)c3)CC2)=C(c2ccc(Cl)cc2)C1 ... 10.85
3) CC(C)N1CCC2(CCC(c3ccc(Cl)cc3)=C(CN3CCN(c4ccc(C(=O)NS(=O)(=O)c5ccc(NCC6CCOCC6)c(C(F)(F)F)c5)c(Oc5cnc6[nH]ccc6c5)c4)CC3)C2)CC1 ... 10.46

Now look at this entry.
Tell us which pKi value is on record for CC1(C)CCC(CN2CCN(c3ccc(C(=O)NS(=O)(=O)c4cnc(OC[C@@H]5CN(CC#N)CCO5)c(Cl)c4)c(Oc4cnc5[nH]ccc5c4)c3)CC2)=C(c2ccc(Cl)cc2)C1
9.55
